- method.notes: Ferric ions (Fe^3+) reducing antioxidant power by cyclic voltammetry
- assay.conditions: compound alone 0.5 mM in 0.1 M HClO4; 2nd Iox column
property: Iox (μA)
Quick note: unit goes after the number.

What does the record list as Iox (μA) for Cc1csc(N/N=C/c2ccc(O)cc2O)n1.Cl ? 15.68 μA

Entry under review: Br.C/C(=N\Nc1nc(-c2ccccc2)cs1)c1ccc(O)cc1O . Reported Iox (μA)? 3.04 μA

Param item = C/C(=N\Nc1nc(-c2ccc(O)c(O)c2)cs1)c1ccc(O)cc1O.Cl ; retrieve measured Iox (μA). 2.32 μA

---

- method.notes: Cyclic voltammetry of the compounds on graphite-based SPE
- Format: physicochemical
- assay.conditions: 3rd oxidation peak; CV, 0.1 M HClO4, graphite-based SPE
property: Iox (μA)
Output spec: scalar in μA, unitless text.

1) Br.NC(=O)c1cc(-c2csc(N/N=C/c3ccc(O)cc3O)n2)ccc1O [Compound 7b]    6.385
2) Br.C/C(=N\Nc1nc(-c2ccc(O)c(C(N)=O)c2)cs1)c1ccc(O)cc1O [Compound 7a]    2.69
3) Br.C/C(=N\Nc1nc(-c2ccccc2)cs1)c1ccc(O)cc1O [Compound 6a]    15.03
4) C/C(=N\Nc1nc(-c2ccc(O)c(O)c2)cs1)c1ccc(O)cc1O.Cl [Compound 8a]    4.87
5) Cc1csc(N/N=C/c2ccc(O)cc2O)n1.Cl [Compound 5b]    5.87

# next molecule below
Look at this molecule and give its reported Iox (μA). C/C(=N\Nc1nc(C)cs1)c1ccc(O)cc1O [Compound 5a] 19.21

---

- method.notes: Cu^2+ chelation assay
- Assay type: biochemical
- assay.conditions: 16.80 µg/mL
Listed below: Chelation Capacity (%), cupric ions values for each entry.
Answer with a number only, understood to be in %.

Please review the following examples before continuing.
1. C/C(=N\Nc1nc(C)cs1)c1ccc(O)cc1O    33.67
2. Br.C/C(=N\Nc1nc(-c2ccc(O)c(C(N)=O)c2)cs1)c1ccc(O)cc1O    38.88

What measured Chelation Capacity (%), cupric ions goes with C/C(=N\Nc1nc(-c2ccc(O)c(O)c2)cs1)c1ccc(O)cc1O.Cl ? 38.91

Would you mind telling me what Chelation Capacity (%), cupric ions value was observed for Cc1csc(N/N=C/c2ccc(O)cc2O)n1.Cl ? 34.10

Quick one: Chelation Capacity (%), cupric ions of Cl.Oc1ccc(/C=N/Nc2nc(-c3ccc(O)c(O)c3)cs2)c(O)c1 ? 26.71

I would be grateful if you could share the reported Chelation Capacity (%), cupric ions for Br.NC(=O)c1cc(-c2csc(N/N=C/c3ccc(O)cc3O)n2)ccc1O . 22.72

I would be grateful if you could share the reported Chelation Capacity (%), cupric ions for Br.C/C(=N\Nc1nc(-c2ccccc2)cs1)c1ccc(O)cc1O . 18.67

Requested field: Chelation Capacity (%), cupric ions. Item: Br.Oc1ccc(/C=N/Nc2nc(-c3ccccc3)cs2)c(O)c1 17.07

---

% of ABTS˙^+ Scavenged values by entry
- method.notes: ABTS˙^+ radical scavenging assay
- Assay type: biochemical
- assay.conditions: 1.5 µg/mL
Give just the number in %; leave the unit off.

1. O=C1O[C@H]([C@@H](O)CO)C(O)=C1O [Ascorbic acid, reference compound]    38.24
2. Cl.Oc1ccc(/C=N/Nc2nc(-c3ccc(O)c(O)c3)cs2)c(O)c1    66.66

State the recorded % of ABTS˙^+ Scavenged for this entry: C/C(=N\Nc1nc(-c2ccc(O)c(O)c2)cs1)c1ccc(O)cc1O.Cl 58.72

Look at this compound and give its reported % of ABTS˙^+ Scavenged. Br.C/C(=N\Nc1nc(-c2ccccc2)cs1)c1ccc(O)cc1O 22.21

Item under review: Br.Oc1ccc(/C=N/Nc2nc(-c3ccccc3)cs2)c(O)c1 . Reported % of ABTS˙^+ Scavenged? 28.56

I have this compound here, Br.NC(=O)c1cc(-c2csc(N/N=C/c3ccc(O)cc3O)n2)ccc1O , and I need its recorded % of ABTS˙^+ Scavenged. 49.20

For Br.C/C(=N\Nc1nc(-c2ccc(O)c(C(N)=O)c2)cs1)c1ccc(O)cc1O , what is its reported % of ABTS˙^+ Scavenged? 30.78

# input compound: Cc1csc(N/N=C/c2ccc(O)cc2O)n1.Cl ; wanted: its % of ABTS˙^+ Scavenged 66.50

---

- method.notes: DPPH˙ radical scavenging by cyclic voltammetry
- assay.conditions: compound alone; 2nd Eox
property: Eox (V)
Write the number in V without appending the unit.

In the examples that follow, each entry is paired with its recorded Eox (V).
1) Cc1csc(N/N=C/c2ccc(O)cc2O)n1.Cl    0.357
2) Br.Oc1ccc(/C=N/Nc2nc(-c3ccccc3)cs2)c(O)c1    0.391
3) C/C(=N\Nc1nc(-c2ccc(O)c(O)c2)cs1)c1ccc(O)cc1O.Cl    0.325
4) C/C(=N\Nc1nc(C)cs1)c1ccc(O)cc1O    0.339

Consider the additional compound presented here.
Eox (V) for Br.NC(=O)c1cc(-c2csc(N/N=C/c3ccc(O)cc3O)n2)ccc1O ? 0.342

---

- method.notes: Ferric ions (Fe^3+) reducing antioxidant power by cyclic voltammetry
- assay.conditions: compound + Fe^3+/Fe^2+; 2nd Iox column
Note to self: Iox (μA) under 20 μA means Yes, ties and anything higher get No.

For orientation, consider the following solved cases.
1. C/C(=N\Nc1nc(C)cs1)c1ccc(O)cc1O    Yes
2. Br.Oc1ccc(/C=N/Nc2nc(-c3ccccc3)cs2)c(O)c1    No
3. Cc1csc(N/N=C/c2ccc(O)cc2O)n1.Cl    No
4. Cl.Oc1ccc(/C=N/Nc2nc(-c3ccc(O)c(O)c3)cs2)c(O)c1    No
5. C/C(=N\Nc1nc(-c2ccc(O)c(O)c2)cs1)c1ccc(O)cc1O.Cl    Yes

Iox (μA) strictly < 20 μA for this compound? Br.C/C(=N\Nc1nc(-c2ccc(O)c(C(N)=O)c2)cs1)c1ccc(O)cc1O Yes

Field: below-cutoff. Rule: recorded Iox (μA) strictly less than 20 μA. Subject: Br.NC(=O)c1cc(-c2csc(N/N=C/c3ccc(O)cc3O)n2)ccc1O Yes

Report whether reported Iox (μA) is lower than 20 μA (strictly) for Br.C/C(=N\Nc1nc(-c2ccccc2)cs1)c1ccc(O)cc1O Yes

---

Eox (V) values, listed per item
- method.notes: Cyclic voltammetry of the compounds on graphite-based SPE
- Type: physicochemical
- assay.conditions: 1st oxidation peak; CV, 0.1 M HClO4, graphite-based SPE
Lab book: enter the figure in V, no units written.

Consider the molecule shown here: Br.C/C(=N\Nc1nc(-c2ccccc2)cs1)c1ccc(O)cc1O What is its recorded Eox (V)? 0.298

Record request: Eox (V) value, item C/C(=N\Nc1nc(-c2ccc(O)c(O)c2)cs1)c1ccc(O)cc1O.Cl 0.174

Fill blank: measured Eox (V) of the molecule Br.NC(=O)c1cc(-c2csc(N/N=C/c3ccc(O)cc3O)n2)ccc1O is ____. 0.267

# query: Eox (V) of entry Br.C/C(=N\Nc1nc(-c2ccc(O)c(C(N)=O)c2)cs1)c1ccc(O)cc1O 0.269

Consider the molecule shown here: Cl.Oc1ccc(/C=N/Nc2nc(-c3ccc(O)c(O)c3)cs2)c(O)c1 What is its recorded Eox (V)? 0.166

So what does the record say about Eox (V) for Br.Oc1ccc(/C=N/Nc2nc(-c3ccccc3)cs2)c(O)c1 ? 0.296

---

- method.notes: Cyclic voltammetry of the compounds on graphite-based SPE
- Type: physicochemical
- assay.conditions: 2nd oxidation peak; CV, 0.1 M HClO4, graphite-based SPE
Entries and their Iox (μA) values follow.
Answer in μA, number only, no unit symbol.

For C/C(=N\Nc1nc(C)cs1)c1ccc(O)cc1O , what is its reported Iox (μA)? 50.85

What measured Iox (μA) goes with C/C(=N\Nc1nc(-c2ccc(O)c(O)c2)cs1)c1ccc(O)cc1O.Cl ? 37.08

May I ask what Iox (μA) has been recorded for Br.NC(=O)c1cc(-c2csc(N/N=C/c3ccc(O)cc3O)n2)ccc1O ? 15.78

What measured Iox (μA) goes with Br.Oc1ccc(/C=N/Nc2nc(-c3ccccc3)cs2)c(O)c1 ? 44.99

Consider the compound Cl.Oc1ccc(/C=N/Nc2nc(-c3ccc(O)c(O)c3)cs2)c(O)c1 and give its measured Iox (μA). 40.99

Consider the compound shown here: Br.C/C(=N\Nc1nc(-c2ccccc2)cs1)c1ccc(O)cc1O What is its recorded Iox (μA)? 22.48

Any idea what its Iox (μA) is? The compound is Br.C/C(=N\Nc1nc(-c2ccc(O)c(C(N)=O)c2)cs1)c1ccc(O)cc1O 2.06

# lookup: Iox (μA) of Cc1csc(N/N=C/c2ccc(O)cc2O)n1.Cl 69.35
